Recorded kon for the following binders
biological target: T1, human programmed cell death protein 1 (hPD-1) C93S (aa 24-167) (Homo sapiens, UniProt Q15116, C93S); experiment: SPR; Carterra LSA; Fab from the ammonium sulfate precipitate of the culture supernatant immobilised on a NiHC200M chip; hPD-1 (1-1024 nM) or mPD-1-Fc (4-1024 nM) as analyte, fourfold dilution series, no regeneration; HBS-EP pH 7.4, 25 °C; medians over the spots of a construct, KD = koff/kon; details: one partner purified
T1 construct: made as a fusion with a TEV site and human Fc; the Fc was cut off with TEV protease; source: Expi293F, purified (Protein A, TEV cleavage of Fc, SEC; monomer fractions); not shown: Fc (human), C-terminal, cleaved
T1 sequence (Q15116 24-167 C93S): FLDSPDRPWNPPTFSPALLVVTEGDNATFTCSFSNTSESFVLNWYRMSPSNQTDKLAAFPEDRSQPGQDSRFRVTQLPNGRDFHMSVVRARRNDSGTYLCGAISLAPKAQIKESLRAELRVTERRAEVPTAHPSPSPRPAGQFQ
State just the number; it will be interpreted in M⁻¹ s⁻¹.

Please review the entries below; each comes with its answer.
toripalimab Fab L.L101K (Fab, V domains shown, as the heavy chain of Sm3; light chain of Sm3 with this change; numbers count from the chain's first residue; source: Brevibacillus, culture supernatant (ammonium sulfate precipitate); not shown: 6xHis, C-terminal, kept; 6xHN, C-terminal, kept) VH: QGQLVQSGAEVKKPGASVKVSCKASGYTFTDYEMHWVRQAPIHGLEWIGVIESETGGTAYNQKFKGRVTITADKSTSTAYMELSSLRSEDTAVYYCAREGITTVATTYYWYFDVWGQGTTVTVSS VL: DVVMTQSPLSLPVTLGQPASISCRSSQSIVHSNGNTYLEWYLQKPGQSPQLLIYKVSNRFSGVPDRFSGSGSGTDFTLKISRVEAEDVGVYYCFQGSHVPKTFGQGTKLEIK    5600
toripalimab Fab L.V99A (Fab, V domains shown, as the heavy chain of Sm3; light chain of Sm3 with this change; numbers count from the chain's first residue; source: Brevibacillus, culture supernatant (ammonium sulfate precipitate); not shown: 6xHis, C-terminal, kept; 6xHN, C-terminal, kept) VH: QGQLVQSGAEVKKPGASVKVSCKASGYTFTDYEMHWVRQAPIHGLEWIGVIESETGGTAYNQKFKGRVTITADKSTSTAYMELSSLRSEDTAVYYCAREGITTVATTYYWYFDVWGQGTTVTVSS VL: DVVMTQSPLSLPVTLGQPASISCRSSQSIVHSNGNTYLEWYLQKPGQSPQLLIYKVSNRFSGVPDRFSGSGSGTDFTLKISRVEAEDVGVYYCFQGSHAPLTFGQGTKLEIK    22300
toripalimab Fab H.K63A (Fab, V domains shown, heavy chain of Sm3 with this change; numbers count from the chain's first residue; as the light chain of Sm3; source: Brevibacillus, culture supernatant (ammonium sulfate precipitate); not shown: 6xHis, C-terminal, kept; 6xHN, C-terminal, kept) VH: QGQLVQSGAEVKKPGASVKVSCKASGYTFTDYEMHWVRQAPIHGLEWIGVIESETGGTAYNQAFKGRVTITADKSTSTAYMELSSLRSEDTAVYYCAREGITTVATTYYWYFDVWGQGTTVTVSS VL: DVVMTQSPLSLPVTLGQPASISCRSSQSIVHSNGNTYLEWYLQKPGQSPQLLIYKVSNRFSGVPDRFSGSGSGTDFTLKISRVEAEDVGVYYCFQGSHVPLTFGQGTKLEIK    40300
toripalimab Fab H.I101Y (Fab, V domains shown, heavy chain of Sm3 with this change; numbers count from the chain's first residue; as the light chain of Sm3; source: Brevibacillus, culture supernatant (ammonium sulfate precipitate); not shown: 6xHis, C-terminal, kept; 6xHN, C-terminal, kept) VH: QGQLVQSGAEVKKPGASVKVSCKASGYTFTDYEMHWVRQAPIHGLEWIGVIESETGGTAYNQKFKGRVTITADKSTSTAYMELSSLRSEDTAVYYCAREGYTTVATTYYWYFDVWGQGTTVTVSS VL: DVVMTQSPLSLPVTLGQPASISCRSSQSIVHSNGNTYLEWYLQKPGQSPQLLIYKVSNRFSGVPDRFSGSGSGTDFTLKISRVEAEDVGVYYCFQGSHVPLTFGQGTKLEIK    4170
toripalimab Fab L.R24Y (Fab, V domains shown, as the heavy chain of Sm3; light chain of Sm3 with this change; numbers count from the chain's first residue; source: Brevibacillus, culture supernatant (ammonium sulfate precipitate); not shown: 6xHis, C-terminal, kept; 6xHN, C-terminal, kept) VH: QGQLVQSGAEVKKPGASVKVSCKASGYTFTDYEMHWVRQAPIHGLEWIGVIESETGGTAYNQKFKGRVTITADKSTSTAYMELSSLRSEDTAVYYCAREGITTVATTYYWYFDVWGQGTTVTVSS VL: DVVMTQSPLSLPVTLGQPASISCYSSQSIVHSNGNTYLEWYLQKPGQSPQLLIYKVSNRFSGVPDRFSGSGSGTDFTLKISRVEAEDVGVYYCFQGSHVPLTFGQGTKLEIK    6930

Consider the record given below.
kon reported for this binder toripalimab Fab H.H35A (Fab, V domains shown, heavy chain of Sm3 with this change; numbers count from the chain's first residue; as the light chain of Sm3; source: Brevibacillus, culture supernatant (ammonium sulfate precipitate); not shown: 6xHis, C-terminal, kept; 6xHN, C-terminal, kept) VH: QGQLVQSGAEVKKPGASVKVSCKASGYTFTDYEMAWVRQAPIHGLEWIGVIESETGGTAYNQKFKGRVTITADKSTSTAYMELSSLRSEDTAVYYCAREGITTVATTYYWYFDVWGQGTTVTVSS VL: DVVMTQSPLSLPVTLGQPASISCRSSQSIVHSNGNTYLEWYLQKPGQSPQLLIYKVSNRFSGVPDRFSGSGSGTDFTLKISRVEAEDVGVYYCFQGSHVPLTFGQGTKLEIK : 3250
